# System: DU-145
# PROTOCOL SUMMARY: Cytotoxicity against human DU145 cells after 48 hrs by MTT assay
# Format: functional, cell-based
# ASSAY SETUP: DU-145, 48 h
Mark each entry Yes if its IC50 sits below 5 µM, and No for all others.

{"MOL": "O=C1Nc2ccc(F)cc2C1(c1c[nH]c2ccc([N+](=O)[O-])cc12)c1c[nH]c2ccc([N+](=O)[O-])cc12", "CLASS LABEL": "No"}
{"MOL": "COc1ccc2c(C3(c4c[nH]c5cc(OC)ccc45)C(=O)Nc4ccccc43)c[nH]c2c1", "CLASS LABEL": "Yes"}
{"MOL": "O=C1Nc2ccccc2C1(c1c[nH]c2ccc(Cl)cc12)c1c[nH]c2ccc(Cl)cc12", "CLASS LABEL": "No"}
{"MOL": "COc1cccc2[nH]cc(C3(c4c[nH]c5cccc(OC)c45)C(=O)Nc4ccc(F)cc43)c12", "CLASS LABEL": "No"}
{"MOL": "Cn1cc(C2(c3cn(C)c4ccccc34)C(=O)Nc3ccc(F)cc32)c2ccccc21", "CLASS LABEL": "No"}

**Q:** Just wondering, is IC50 of O=C1Nc2ccc(F)cc2C1(c1c[nH]c2ccccc12)c1c[nH]c2ccccc12 below 5 µM?
**A:** No

**Q:** Same question, O=C1Nc2ccc(F)cc2C1(c1c[nH]c2ccc(Cl)cc12)c1c[nH]c2ccc(Cl)cc12 this time
**A:** No

**Q:** Entry to check: COc1ccc2[nH]cc(C3(c4c[nH]c5ccc(OC)cc45)C(=O)Nc4ccc(F)cc43)c2c1
**A:** Yes

---

# Tested on: HepG2
# PROTOCOL SUMMARY: Cytotoxicity against human HepG2 cells after 48 hrs by MTT assay
# Type: functional, cell-based
# ASSAY SETUP: HepG2, 48 h
PROPERTY: IC50 (µM)
Give the quantity in µM, number only.

Below, 6 molecules whose answers are already recorded.
{"MOL": "O=C1Nc2ccc(F)cc2C1(c1c[nH]c2ccc([N+](=O)[O-])cc12)c1c[nH]c2ccc([N+](=O)[O-])cc12", "VALUE UNIT": "µM", "MEASURED VALUE": 23.8}
{"MOL": "O=C1Nc2ccc(F)cc2C1(c1c[nH]c2ccc(Br)cc12)c1c[nH]c2ccc(Br)cc12", "VALUE UNIT": "µM", "MEASURED VALUE": 12.8}
{"MOL": "O=C1Nc2ccc(F)cc2C1(c1c[nH]c2ccc(Cl)cc12)c1c[nH]c2ccc(Cl)cc12", "VALUE UNIT": "µM", "MEASURED VALUE": 16.6}
{"MOL": "COc1cccc2[nH]cc(C3(c4c[nH]c5cccc(OC)c45)C(=O)Nc4ccc(F)cc43)c12", "VALUE UNIT": "µM", "MEASURED VALUE": 18}
{"MOL": "COc1ccc2[nH]cc(C3(c4c[nH]c5ccc(OC)cc45)C(=O)Nc4ccc(F)cc43)c2c1", "VALUE UNIT": "µM", "MEASURED VALUE": 36.6}
{"MOL": "O=C1Nc2ccccc2C1(c1c[nH]c2ccc(Cl)cc12)c1c[nH]c2ccc(Cl)cc12", "VALUE UNIT": "µM", "MEASURED VALUE": 14.6}

**Q:** IC50 for COc1ccc2[nH]cc(C3(c4c[nH]c5ccc(OC)cc45)C(=O)Nc4ccccc43)c2c1 ?
**A:** 30.2

---

# Test system: MCF7
# PROTOCOL SUMMARY: Cytotoxicity against human MCF7 cells after 48 hrs by MTT assay
# Format: functional, cell-based
# ASSAY SETUP: MCF7, 48 h
PROPERTY: pIC50
FYI, pIC50 means -log10 of a concentration in mol per litre.

Recorded pIC50, per entry:
{"MOL": "O=C1Nc2ccc(F)cc2C1(c1c[nH]c2ccc(Br)cc12)c1c[nH]c2ccc(Br)cc12", "STUDY SYSTEM": "MCF7", "PROPERTY": "pIC50", "MEASURED VALUE": 4.89}
{"MOL": "COc1ccc2[nH]cc(C3(c4c[nH]c5ccc(OC)cc45)C(=O)Nc4ccccc43)c2c1", "STUDY SYSTEM": "MCF7", "PROPERTY": "pIC50", "MEASURED VALUE": 4.47}
{"MOL": "COc1cccc2[nH]cc(C3(c4c[nH]c5cccc(OC)c45)C(=O)Nc4ccc(F)cc43)c12", "STUDY SYSTEM": "MCF7", "PROPERTY": "pIC50", "MEASURED VALUE": 5.12}
{"MOL": "O=C1Nc2ccccc2C1(c1c[nH]c2ccccc12)c1c[nH]c2ccccc12", "STUDY SYSTEM": "MCF7", "PROPERTY": "pIC50", "MEASURED VALUE": 4.30}
{"MOL": "O=C1Nc2ccccc2C1(c1c[nH]c2ccc(Br)cc12)c1c[nH]c2ccc(Br)cc12", "STUDY SYSTEM": "MCF7", "PROPERTY": "pIC50", "MEASURED VALUE": 4.33}
{"MOL": "COc1ccc2c(C3(c4c[nH]c5cc(OC)ccc45)C(=O)Nc4ccc(F)cc43)c[nH]c2c1", "STUDY SYSTEM": "MCF7", "PROPERTY": "pIC50", "MEASURED VALUE": 4.92}
{"MOL": "Cn1cc(C2(c3cn(C)c4ccccc34)C(=O)Nc3ccc(F)cc32)c2ccccc21", "STUDY SYSTEM": "MCF7", "PROPERTY": "pIC50", "MEASURED VALUE": 5.04}
{"MOL": "COc1cccc2[nH]cc(C3(c4c[nH]c5cccc(OC)c45)C(=O)Nc4ccccc43)c12", "STUDY SYSTEM": "MCF7", "PROPERTY": "pIC50", "MEASURED VALUE": 4.85}

**Q:** Hi! What's the reported pIC50 for O=C1Nc2ccc(F)cc2C1(c1c[nH]c2ccccc12)c1c[nH]c2ccccc12 on MCF7?
**A:** 4.63

**Q:** Thanks! And O=C1Nc2ccc(F)cc2C1(c1c[nH]c2ccc(Cl)cc12)c1c[nH]c2ccc(Cl)cc12 ?
**A:** 4.61

**Q:** Next: COc1ccc2c(C3(c4c[nH]c5cc(OC)ccc45)C(=O)Nc4ccccc43)c[nH]c2c1
**A:** 4.34

---

# Tested on: DU-145
# PROTOCOL SUMMARY: Cytotoxicity against human DU145 cells after 48 hrs by MTT assay
# Format: functional, cell-based
# ASSAY SETUP: DU-145, 48 h
pIC50: −log10 of the molar value.
Kind request: treat 5 as inclusive, so pIC50 at 5 or higher is Fulfilled, anything lower is Not fulfilled.

{"MOL": "COc1cccc2[nH]cc(C3(c4c[nH]c5cccc(OC)c45)C(=O)Nc4ccccc43)c12", "STUDY SYSTEM": "DU-145", "CLASS LABEL": "Fulfilled"}

Please look at the following compound next.
**Q:** Please tell me: is the compound O=C1Nc2ccccc2C1(c1c[nH]c2ccc(Br)cc12)c1c[nH]c2ccc(Br)cc12 at or over 5 in terms of pIC50?
**A:** Fulfilled

---

# Tested on: DU-145
# PROTOCOL SUMMARY: Cytotoxicity against human DU145 cells after 48 hrs by MTT assay
# Type: functional, cell-based
# ASSAY SETUP: DU-145, 48 h
pIC50: −log10 of the molar value.
Please note: Yes applies when pIC50 is 5 or greater, and No applies otherwise.

{"MOL": "O=C1Nc2ccc(F)cc2C1(c1c[nH]c2ccc(Br)cc12)c1c[nH]c2ccc(Br)cc12", "CLASS LABEL": "No"}

**Q:** Is pIC50 at least 5? Consider COc1ccc2[nH]cc(C3(c4c[nH]c5ccc(OC)cc45)C(=O)Nc4ccccc43)c2c1
**A:** Yes

**Q:** Follow-up item: Cn1cc(C2(c3cn(C)c4ccccc34)C(=O)Nc3ccccc32)c2ccccc21
**A:** Yes

---

# Tested on: DU-145
# PROTOCOL SUMMARY: Cytotoxicity against human DU145 cells after 48 hrs by MTT assay
# Format: functional, cell-based
# ASSAY SETUP: DU-145, 48 h
PROPERTY: IC50 (µM)
Give the value, in units of µM, as a plain number.

Observe how each entry below is paired with its result.
{"MOL": "O=C1Nc2ccccc2C1(c1c[nH]c2ccccc12)c1c[nH]c2ccccc12", "PROPERTY": "IC50", "MEASURED VALUE": 8.7}
{"MOL": "O=C1Nc2ccccc2C1(c1c[nH]c2ccc([N+](=O)[O-])cc12)c1c[nH]c2ccc([N+](=O)[O-])cc12", "PROPERTY": "IC50", "MEASURED VALUE": 8}

As a next step, examine the molecule that follows.
**Q:** I would be grateful if you could share the reported IC50 for COc1ccc2c(C3(c4c[nH]c5cc(OC)ccc45)C(=O)Nc4ccc(F)cc43)c[nH]c2c1 .
**A:** 13.1
